target: human GRP receptor (human, UniProt P30550 1-384); assay: cell-based or functional assay
Sequence (P30550 whole entry): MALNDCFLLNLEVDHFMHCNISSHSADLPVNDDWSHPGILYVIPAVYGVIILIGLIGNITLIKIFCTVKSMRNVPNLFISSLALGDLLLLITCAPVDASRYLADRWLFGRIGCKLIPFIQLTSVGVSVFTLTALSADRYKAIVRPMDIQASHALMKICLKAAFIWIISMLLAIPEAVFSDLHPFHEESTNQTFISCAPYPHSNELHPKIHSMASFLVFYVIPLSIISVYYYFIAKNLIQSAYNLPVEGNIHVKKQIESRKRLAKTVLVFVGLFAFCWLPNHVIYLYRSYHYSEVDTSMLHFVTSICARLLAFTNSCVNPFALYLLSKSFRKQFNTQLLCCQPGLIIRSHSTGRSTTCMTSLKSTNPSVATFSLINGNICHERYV
Starred links: 1 amine or outer side, 2 acyl side, 3 side chain; linkers in the order of their positions; H or OH if unused. Non-standard residues stand in square brackets, D forms with d. No end group written: not given here. *: point of attachment. C20 diacid = O=C(O)CCCCCCCCCCCCCCCCCCC(=O)*; d(γGlu) = O=C(O)[C@@H](CCC(=O)[*:2])N[*:1]; C18 diacid = O=C(O)CCCCCCCCCCCCCCCCC(=O)*; γGlu = O=C(O)[C@H](CCC(=O)[*:2])N[*:1]; 3Pal = N[C@@H](Cc1cccnc1)C(=O)O; Nle = CCCC[C@H](N)C(=O)O; AEEA = NCCOCCOCC(=O)O; βAla = NCCC(=O)O
Measured hIP1 GRPR EC50 by item
testReadout: hIP1 GRPR EC50 (nM)

• {C18 diacid}-[γGlu][AEEA][AEEA]FN[3Pal]WAV[βAla]HL[Nle]-NH2 (SMILES CCCC[C@H](NC(=O)[C@H](CC(C)C)NC(=O)[C@H](Cc1c[nH]cn1)NC(=O)CCNC(=O)[C@@H](NC(=O)[C@H](C)NC(=O)[C@H](Cc1c[nH]c2ccccc12)NC(=O)[C@H](Cc1cccnc1)NC(=O)[C@H](CC(N)=O)NC(=O)[C@H](Cc1ccccc1)NC(=O)COCCOCCNC(=O)COCCOCCNC(=O)CC[C@H](NC(=O)CCCCCCCCCCCCCCCCC(=O)O)C(=O)O)C(C)C)C(N)=O) [Peptide 144] = 5.99
• {C20 diacid}-[γGlu]GNHWAV[dA]HL[Nle] [Peptide 164] = 125
• {C18 diacid}-[d(γGlu)][AEEA][AEEA]GK(Ac)HWAV[dA]HL[Nle]-NH2 (SMILES CCCC[C@H](NC(=O)[C@H](CC(C)C)NC(=O)[C@H](Cc1c[nH]cn1)NC(=O)[C@@H](C)NC(=O)[C@@H](NC(=O)[C@H](C)NC(=O)[C@H](Cc1c[nH]c2ccccc12)NC(=O)[C@H](Cc1c[nH]cn1)NC(=O)[C@H](CCCCNC(C)=O)NC(=O)CNC(=O)COCCOCCNC(=O)COCCOCCNC(=O)CC[C@@H](NC(=O)CCCCCCCCCCCCCCCCC(=O)O)C(=O)O)C(C)C)C(N)=O) [Peptide 65] = 6.05
